Data origin: PubChem BioAssay (NCI)

Would you kindly list growth for each of these compounds?
system: RPMI-8226 leukemia; experiment: NCI-60 one-dose screen, 48 h (100 = growth as untreated, 0 = no growth, -100 = all killed); conditions: 10 µM unless noted
About 83,000 compounds went through this panel and 20% of them were active in at least one assay; those are over-represented in the sample as a whole. Activity calls are given as the source filed them. How the source made its calls: active means growth percent below 10; inactive means the rest.

Examples with answers:
compound	target.or.system	growth
Cc1ccc2nc(/C=C/c3ccc(N(C)C)cc3)cc(C)c2c1	RPMI-8226 leukemia	34.1% (inactive)
COc1cc2cc(Oc3ccc(NC(=O)Nc4ccc(F)c(C(F)(F)F)c4)cc3)c(C)nc2cc1OCCN1CCCCC1	RPMI-8226 leukemia	-25.8% (active)
COc1cc(C(=O)c2c(-c3ccccc3)oc3ccccc23)cc(OC)c1O	RPMI-8226 leukemia	24.7% (inactive)
CCOC(=O)CCC(=O)P(=O)(O)O	RPMI-8226 leukemia	42.1% (inactive)
C#Cc1cccc(Nc2ncnc3ccc(-c4cnc(Cl)c(NS(C)(=O)=O)c4)cc23)c1	RPMI-8226 leukemia	-31.8% (active)

Below is a list of compounds. For each, state its recorded growth.
1. CNC1=C(Br)C(=O)c2c(C(=O)OC)c(C)nc(C)c2C1=O
2. [2H]C([2H])([2H])Oc1ccc(/C=C/C(=O)/C=C(/C=C/c2ccc(OC([2H])([2H])[2H])c(OC([2H])([2H])[2H])c2OC([2H])([2H])[2H])OB(F)F)c(OC([2H])([2H])[2H])c1OC([2H])([2H])[2H]
3. CCOC(=O)C1=C(c2ccccc2)N=C2N(c3ccccc3)N=C(C(C)=O)N2C1c1ccc(Br)cc1 (configuration not stated)
4. COC(=O)c1cc(-c2ccc(OC)c(OC)c2)[nH]c1N/N=C/c1c(Cl)cccc1Cl
5. Cc1c(Cl)cccc1NC(=O)c1sc2nc3c(cc2c1N)CCCC3
6. COc1cc2c(c(OC)c1OC)CCC(c1cccc(C(=O)Nc3ccc([N+](=O)[O-])cc3)c1)O2 (configuration not stated)

75.8% (inactive)
18.9% (inactive)
77.8% (inactive)
24.1% (inactive)
33% (inactive)
9.24% (active)

* * *

Tested on: M14 melanoma
Experiment: NCI-60 one-dose screen, 48 h (100 = growth as untreated, 0 = no growth, -100 = all killed)
Settings: 10 µM unless noted
Protocol: Growth inhibition of the M14 human tumor cell line is measured as a screen for anti-cancer activity. Cells are grown in 96 well plates and exposed to the test compound for 48 hours. Compounds are tested at a single concentration, which is 10^-5 M for most compounds. The reported endpoint is percent growth (GI% or GIPRCNT), where numbers from 0 - 100% represent growth inhibition, and numbers from -100% - 0 represent cell death. For example, a value of 40 represents 60% growth inhibition. […]
Compounds without any hit were thinned out: in the full panel of roughly 83,000, 20% have a hit. Active and inactive are the calls of the source. Rule for the calls: active = growth percent below 10; inactive = the rest.
outcome.measure: growth

For each of the compounds below, note its growth.
1. O=C1c2ccccc2C(=O)c2cc(Cn3c[n+](Cc4ccc5ccccc5c4)c4ccccc43)ccc21
2. CCOC(=O)CCC(=O)P(=O)(O)O
3. NC(=O)[C@@H]1Cc2ccccc2CN1C(=O)c1ccc2c(c1)Cc1ccccc1-2
4. CCOC(=O)c1cc(C(=O)c2cc(OC)cc(OC)c2)n2ccccc12

["38.7% (inactive)", "92.4% (inactive)", "87.4% (inactive)", "3.55% (active)"]

For every item below, please supply its growth.
1. O=C(Nc1ccc(Cl)cc1)C1=NCCCCN1
2. CC(=O)/C(Br)=C/c1ccc(Br)o1
3. COc1cccc(C2C(C#N)=C(N)Oc3c2ccc2ccccc32)c1 (stereo not given)
4. O=C1C=CC2(O)OC(c3ccccc3)CC(=O)C2=C1O (stereo not given)

1: 75.7% (inactive); 2: 64.9% (inactive); 3: 9.7% (active); 4: 90.3% (inactive)

Each compound below has a recorded value; state its growth.
1. COCCn1cc(-c2nc(-c3cc4cccnc4n3C)cs2)c2cc(OC)ccc21
2. CC1=C(C(=O)OCc2ccccc2)C(c2ccc3c(c2)OCO3)n2c(nc3ccccc32)N1 (stereo not given)

1: 63.7% (inactive); 2: 28.1% (inactive)

* * *

test system: SK-MEL-28 melanoma; assay: NCI-60 one-dose screen, 48 h (100 = growth as untreated, 0 = no growth, -100 = all killed); settings: 10 µM unless noted
This is part of a sample that, as a whole, favours compounds with a hit. Of some 83,000 tested, about 20% had one in any assay.
Can you tell me growth for the items I'm about to list?
Give bare numbers, in %.

molecule	target.or.system	outcome.measure	observed.result
CCOC(=O)CSc1nc2sc3c(c2c(=O)n1-c1ccccc1)CCCCC3	SK-MEL-28 melanoma	growth	112
COc1cc2nc3cc([N+](=O)[O-])ccc3c(NCCCNCCO)c2cc1OC	SK-MEL-28 melanoma	growth	-53.1
CCOC(=O)CCC(=O)P(=O)(O)O	SK-MEL-28 melanoma	growth	93.6
O=C1c2ccccc2C(=O)c2cc(Cn3c[n+](Cc4ccc5ccccc5c4)c4ccccc43)ccc21	SK-MEL-28 melanoma	growth	45.4
O=C(Nc1ccccc1CNc1nc(Nc2ccc(OCCN3CCCC3)cc2)ncc1Cl)NC1CCCCC1	SK-MEL-28 melanoma	growth	79.8
O=C(Nc1ncc(Cc2ccccc2Cl)s1)c1ccc2c(c1)OCCO2	SK-MEL-28 melanoma	growth	76.3

// for each molecule below, give its growth
1. O=C1/C(=C/c2cccc([N+](=O)[O-])c2)COc2ccc(O)c(O)c21
2. COc1cc2cc(Oc3ccc(NC(=O)Nc4ccc(F)c(C(F)(F)F)c4)cc3)c(C)nc2cc1OCCN1CCCCC1
3. CN(C)CCCN(CCC1CCCCC1)CCC1CCCCC1
4. C=C(CNCCc1ccc(O)cc1)[C@@H]1CC[C@]2(CO)CC[C@]3(C)[C@H](CC[C@@H]4[C@@]5(C)CCC(N)C(C)(C)[C@@H]5CC[C@]43C)[C@@H]12 (some centres not stated)

1: -48.3; 2: -62.5; 3: -97.8; 4: -90.5

Provide the reported growth of each entry below, same order.
1. OC1CSSC1Cn1cnc2c(Nc3ccc(F)c(Cl)c3)ncnc21 (configuration not stated)
2. COc1ccc(C(=O)/C=C/c2ccc(Cl)cc2)cc1S(N)(=O)=O
3. COC(=O)c1c(C)nc(C)c2c1C(=O)C(Br)=C(NCCN1CCOCC1)C2=O
4. O=C(/C=C/c1ccc([N+](=O)[O-])cc1)c1cccc(Nc2nc(Nc3ccccc3)nc(Nc3ccccc3)n2)c1
5. COc1cc(-c2ccc(-c3ccc(C(=N)N)s3)s2)cc(OC)c1OC
6. Cc1cc(=O)oc2cc(Oc3nc(-c4ccccc4)cn4c(-c5ccccc5)cnc34)ccc12
7. O=[N+]([O-])c1ccc(Oc2cccc3c(Oc4ccc([N+](=O)[O-])cc4[N+](=O)[O-])cccc23)c([N+](=O)[O-])c1
8. Cc1[nH]c(C(=O)Nc2ccccc2OC2CCNC2)c(Cl)c1Cl (configuration not stated)

[78.3, 97.8, 113, 88.3, 7.05, 67.6, 110, 106]

* * *

For each record, write down the corresponding growth.
test system: RXF 393 renal; assay: NCI-60 one-dose screen, 48 h (100 = growth as untreated, 0 = no growth, -100 = all killed); details: 10 µM unless noted
This is part of a sample that, as a whole, favours compounds with a hit. Of some 83,000 tested, about 20% had one in any assay. Activity calls are given as the source filed them. How the source made its calls: active means growth percent below 10; inactive means the rest.

Value sought for every listed compound: growth.
1. CCN1C(=O)N(CC)C2C1NN=c1s/c(=C\c3ccc([N+](=O)[O-])cc3)c(=O)n12 (stereo not drawn)
2. CN1/C(=C/C=C/c2n(Cc3ccc4ccccc4c3)c(Cl)c(Cl)[n+]2Cc2ccc3ccccc3c2)Oc2ccccc21
3. CC1(C)C2=C(C(=O)N1Cc1ccccc1)C(c1ccco1)N(C(=O)C1CCC1)CCN2 (stereo not drawn)
4. CC1=C([Se]CC(OC(=O)[C@@H](CO)NC(=O)OC(C)(C)C)C(=O)NCCCCCC(=O)OCc2ccccc2)C(=O)c2ccccc2C1=O (stereo partly drawn)
5. O=c1c(Cc2ccc(F)cc2)cc(-c2ccccc2)nn1C/C(=N/O)c1ccccc1
6. COC(=O)c1c(C)nc(C)c2c1C(=O)C(Br)=C(NCCN1CCOCC1)C2=O

["2.89% (active)", "-88.2% (active)", "136% (inactive)", "-99.4% (active)", "28.5% (inactive)", "106% (inactive)"]

* * *

system: HT29 colon; assay: NCI-60 one-dose screen, 48 h; conditions: 10 µM unless noted
Compounds without any hit were thinned out: in the full panel of roughly 83,000, 20% have a hit. Activity calls are given as the source filed them. How the source made its calls: active means growth percent below 10; inactive means the rest.
Result category, one only: active, inactive

Worked set:
>>> print(df.to_string())
                                   compound  group_label
0                           Oc1cccc2c1NCCC2     inactive
1     Cc1ccccc1NC(=O)c1sc2nc3c(cc2c1N)CCCC3       active
2  Nc1ncc(-c2ccc3ncnc(N4CCc5cc(F)c(Cl)cc54)c3c2)cn1     inactive
3  Cc1ccccc1NC(=O)Cn1cc(CN2CCN(c3ccnc4cc(Cl)ccc34)CC2)nn1     inactive
4  O=C(O)/C=C\C(=O)Nc1ccc2c(c1)Cc1cc(F)ccc1-2     inactive
5  O=C(/C=C/c1ccc(Cl)cc1)c1ccc(-n2cc(CN3CCN(c4cc5c(cc4F)c(=O)c(C(=O)O)cn5C4CC4)CC3)nn2)cc1     inactive
6  O=C1c2c(c3c4cccnc4[nH]c3c3ccc4ccccc4c23)C(=O)N1O     inactive
7  CNC(=O)c1cc(Oc2ccc3nc(NC(=O)Nc4ccc(F)cc4F)sc3c2)ccn1     inactive
8         O=C1/C(=C/c2ccccc2)COc2ccc(O)cc21     inactive
9      COc1ccc(CNc2c3ccccc3nc3ccccc23)cc1OC       active

Tell me the assay call for CC(=O)c1c(/C=C/c2ccc(C)cc2)c2ccccc2[nH]c1=O please.
inactive
